Assay: Blood brain barrier penetration assay in rats (short oral absorption model)
Type: in vivo
Conditions: male, Han Wistar, rat, in vivo, po, Kp,uu brain
Procedure: In vitro blood, plasma and brain binding assay was carried out with equilibrium dialysis device. […] After centrifuging at 4000 rpm for 20 min, supernatant was diluted with 0.1% formic acid aqueous solution and analyzed for LC/MS/MS (API 4000, Applied Biosystems, Foster City). […] Standards were prepared by spiking blank plasma, blood, brain homogenate and artificial CSF. […] For brain and CSF samples, one standard curve was analyzed along with test samples. […]
OUTCOME MEASURE: Kp uu
Answers are plain numbers.

Reported Kp uu for Cc1cc(Nc2ncnc3cccc(O[C@@H]4C[C@H]5CC[C@@H](C4)N5C)c23)ccc1Oc1ccn2ncnc2c1 [Compound 20] was 0.08

----------
Target: WT HER2 (Homo sapiens (Human))
Sequence (P04626 23-1255): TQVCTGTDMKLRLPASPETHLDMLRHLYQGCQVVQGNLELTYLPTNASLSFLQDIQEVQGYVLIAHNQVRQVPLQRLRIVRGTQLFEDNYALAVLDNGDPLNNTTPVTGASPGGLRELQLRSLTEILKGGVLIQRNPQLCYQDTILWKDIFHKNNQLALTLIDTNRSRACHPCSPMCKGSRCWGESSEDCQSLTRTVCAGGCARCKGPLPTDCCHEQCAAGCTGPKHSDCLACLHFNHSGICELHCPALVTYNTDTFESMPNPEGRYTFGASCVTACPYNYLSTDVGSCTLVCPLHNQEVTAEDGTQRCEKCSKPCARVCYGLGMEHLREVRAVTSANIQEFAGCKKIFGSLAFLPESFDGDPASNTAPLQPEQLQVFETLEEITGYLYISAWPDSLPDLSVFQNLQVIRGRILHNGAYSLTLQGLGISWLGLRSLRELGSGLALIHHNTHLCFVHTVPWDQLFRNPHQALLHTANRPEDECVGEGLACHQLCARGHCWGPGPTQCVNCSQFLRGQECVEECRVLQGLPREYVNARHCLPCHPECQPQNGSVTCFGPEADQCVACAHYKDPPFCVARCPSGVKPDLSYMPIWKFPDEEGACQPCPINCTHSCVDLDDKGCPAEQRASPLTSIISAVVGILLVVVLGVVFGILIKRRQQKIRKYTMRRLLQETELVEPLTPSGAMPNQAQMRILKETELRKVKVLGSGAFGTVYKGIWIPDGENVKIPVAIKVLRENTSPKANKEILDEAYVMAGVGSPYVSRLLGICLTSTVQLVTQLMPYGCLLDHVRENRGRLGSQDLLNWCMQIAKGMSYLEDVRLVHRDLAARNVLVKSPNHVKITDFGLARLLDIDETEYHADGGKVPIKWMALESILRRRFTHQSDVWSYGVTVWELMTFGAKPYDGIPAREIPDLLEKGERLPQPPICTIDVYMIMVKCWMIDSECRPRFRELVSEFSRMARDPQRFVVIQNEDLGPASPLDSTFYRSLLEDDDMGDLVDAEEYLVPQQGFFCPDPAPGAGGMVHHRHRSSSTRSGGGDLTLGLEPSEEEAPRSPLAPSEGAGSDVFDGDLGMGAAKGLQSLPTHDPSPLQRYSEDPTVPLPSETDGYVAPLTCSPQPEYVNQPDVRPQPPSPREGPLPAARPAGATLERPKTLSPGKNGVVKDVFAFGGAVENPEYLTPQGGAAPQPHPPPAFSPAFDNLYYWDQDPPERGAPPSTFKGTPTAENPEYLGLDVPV
Test: HER2 (Y1248) phosphorylation in BT474 cells (MSD)
Conditions: p-HER2 (Y1248)/total HER2, 4 h, read-out: HER2 WT Amplification BT474 IC50
For each of the compounds below, state its IC50.
Answer with the value and then the unit.

[
  {
    "COMPOUND": "COc1ccc2ncnc(Nc3ccc(Oc4ccn5ncnc5c4)c(C)c3)c2c1OC1CN(C)CCC1(F)F (single isomer, unassigned)",
    "RECORDED MEASUREMENT": "6.83 nM"
  },
  {
    "COMPOUND": "Cc1cc(Nc2ncnc3cccc(OC4CCN(C)CC4(F)F)c23)ccc1Oc1ccc2c(c1)ncn2C (single isomer, unassigned)",
    "RECORDED MEASUREMENT": "5.57 nM"
  },
  {
    "COMPOUND": "COc1cc(OC2CCN(C)CC2(F)F)c2c(Nc3ccc(Oc4ccn5ccnc5c4)c(C)c3)ncnc2c1 (single isomer, unassigned)",
    "RECORDED MEASUREMENT": "6.92 nM"
  },
  {
    "COMPOUND": "Cc1cc(Nc2ncnc3cccc(O[C@H]4C[C@H]5CC[C@@H](C4)N5CC(F)F)c23)ccc1Oc1ccn2ncnc2c1",
    "RECORDED MEASUREMENT": "6.17 nM"
  },
  {
    "COMPOUND": "Cc1cc(Nc2ncnc3cccc(OC4CCN(C)CCC4(F)F)c23)ccc1Oc1ccn2ccnc2c1 (single isomer, unassigned)",
    "RECORDED MEASUREMENT": "61.3 nM"
  }
]

Please give IC50, item by item, for the list that follows.
1. Cc1cc(Nc2ncnc3cc(F)cc(OC4CCN(C)CC4(F)F)c23)ccc1Oc1ccn2ncnc2c1 (single isomer, unassigned)
2. COc1cc(O[C@H]2CCN(C)CC2(F)F)c2c(Nc3ccc(Oc4ccn5ncnc5c4)c(C)c3)ncnc2c1 (single isomer, unassigned)
3. [2H]C([2H])([2H])N1CCC([2H])(Oc2cc(OC)cc3ncnc(Nc4ccc(Oc5ccn6ncnc6c5)c(C)c4)c23)C(F)(F)C1 (single isomer, unassigned)
4. Cc1cc(Nc2ncnc3cccc(OC45CCN(CC4)CC5)c23)ccc1Oc1ccn2ccnc2c1

*A*
1. 44 nM
2. 19.6 nM
3. 22.4 nM
4. 21.8 nM

Please give IC50, item by item, for the list that follows.
1. Cc1cc(Nc2ncnc3cccc(OC4CCN(C)CC4(F)F)c23)ccc1Oc1ccn2ncnc2c1 (single isomer, unassigned)
2. Cc1cc(Nc2ncnc3cccc(O[C@@H]4C[C@H]5CC[C@@H](C4)N5C)c23)ccc1Oc1ccn2ncnc2c1
3. COc1ccc2ncnc(Nc3ccc(Oc4ccn5ncnc5c4)c(C)c3)c2c1OC[C@H]1CC(F)(F)CCN1C
4. COc1cc(OC2CCN(C)CC2(F)F)c2c(Nc3ccc(Oc4cc5ncnn5cc4F)c(C)c3)ncnc2c1 (single isomer, unassigned)

*A*
1. 6.86 nM
2. 12.6 nM
3. 7.96 nM
4. 11.6 nM

----------
Biological target: UniProt P04626
Assay: HER2 (Y1248) phosphorylation in BT474 cells (MSD)
Conditions: p-HER2 (Y1248)/total HER2, 4 h, read-out: HER2 WT Amplification BT474 IC50
For each of the compounds below, state its pIC50.
Give bare numbers, as −log10 of the molar value.

[
  {
    "COMPOUND": "COc1ccc2ncnc(Nc3ccc(Oc4cc5ncnn5cc4F)c(C)c3)c2c1OC1CCN(C)CC1(F)F (single isomer, unassigned)",
    "pIC50": 8.21
  },
  {
    "COMPOUND": "COc1cc(O[C@H]2CCNCC2(F)F)c2c(Nc3ccc(Oc4ccn5ncnc5c4)c(C)c3)ncnc2c1",
    "pIC50": 7.98
  },
  {
    "COMPOUND": "Cc1cc(Nc2ncnc3cccc(OC4CCNC(C(F)F)C4)c23)ccc1Oc1ccn2ccnc2c1 (racemic)",
    "pIC50": 8.59
  },
  {
    "COMPOUND": "CCN1CCC(Oc2cccc3ncnc(Nc4ccc(Oc5ccn6ncnc6c5)c(C)c4)c23)C(F)(F)C1 (single isomer, unassigned)",
    "pIC50": 8.12
  }
]

Please give pIC50, item by item, for the list that follows.
1. COc1cc(OC2CCN(C)CC2(F)F)c2c(Nc3cc(C)c(Oc4ccn5ncnc5c4)cc3F)ncnc2c1 (single isomer, unassigned)
2. COc1ccc2ncnc(Nc3ccc(Oc4ccn5ncnc5c4)c(C)c3)c2c1OC1CCN(C)CC1F (single isomer, unassigned)

*A*
[7.70, 7.58]

----------
Target: WT EGFR (Homo sapiens (Human), UniProt P00533)
Sequence (P00533 25-1210): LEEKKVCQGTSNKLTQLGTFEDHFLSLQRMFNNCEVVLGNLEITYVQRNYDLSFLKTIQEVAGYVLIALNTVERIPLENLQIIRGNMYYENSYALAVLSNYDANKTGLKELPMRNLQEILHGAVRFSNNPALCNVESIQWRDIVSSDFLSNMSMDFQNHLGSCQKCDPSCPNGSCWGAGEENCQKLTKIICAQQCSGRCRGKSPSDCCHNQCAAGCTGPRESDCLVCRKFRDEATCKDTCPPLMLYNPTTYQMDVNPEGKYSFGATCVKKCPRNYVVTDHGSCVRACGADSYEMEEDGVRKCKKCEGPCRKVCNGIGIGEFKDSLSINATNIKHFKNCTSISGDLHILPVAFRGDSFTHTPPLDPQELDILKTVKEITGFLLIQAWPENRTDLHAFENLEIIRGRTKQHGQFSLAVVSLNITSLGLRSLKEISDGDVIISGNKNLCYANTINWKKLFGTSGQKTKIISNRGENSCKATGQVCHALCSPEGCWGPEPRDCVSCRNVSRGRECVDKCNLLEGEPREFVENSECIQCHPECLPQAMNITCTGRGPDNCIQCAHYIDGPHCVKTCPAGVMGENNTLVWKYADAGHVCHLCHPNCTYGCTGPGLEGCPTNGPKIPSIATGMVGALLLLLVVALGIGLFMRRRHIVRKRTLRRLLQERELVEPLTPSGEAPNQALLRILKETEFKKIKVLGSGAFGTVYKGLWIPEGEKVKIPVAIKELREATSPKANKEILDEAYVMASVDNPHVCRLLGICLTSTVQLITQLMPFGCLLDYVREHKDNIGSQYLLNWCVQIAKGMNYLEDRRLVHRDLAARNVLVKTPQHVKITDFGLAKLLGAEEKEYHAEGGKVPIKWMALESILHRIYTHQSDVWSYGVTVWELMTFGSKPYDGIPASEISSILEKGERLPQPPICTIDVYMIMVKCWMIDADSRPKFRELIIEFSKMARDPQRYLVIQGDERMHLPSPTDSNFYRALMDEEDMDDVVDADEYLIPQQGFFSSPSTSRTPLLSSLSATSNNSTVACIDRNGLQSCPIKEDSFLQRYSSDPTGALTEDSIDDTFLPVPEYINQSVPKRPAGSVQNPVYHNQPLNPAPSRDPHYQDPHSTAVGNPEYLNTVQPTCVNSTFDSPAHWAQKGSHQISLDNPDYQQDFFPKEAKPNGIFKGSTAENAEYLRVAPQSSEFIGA
Experiment: EGFR (Y1068) phosphorylation in NCI-H838 cells (MSD)
Details: p-EGFR (Y1068)/total EGFR, 4 h, hEGF stimulation
For each of the compounds below, state its IC50.

Worked set:
[
  {
    "COMPOUND": "COc1cc(OC2CCN(C)CC2(F)F)c2c(Nc3ccc(Oc4cc5ncnn5cc4F)c(C)c3)ncnc2c1 (single isomer, unassigned) [Compound 22]",
    "IC50": "2.92 µM"
  },
  {
    "COMPOUND": "Cc1cc(Nc2ncnc3cccc(OC4CCN(C)CC4(F)F)c23)ccc1Oc1ccc2c(c1)ncn2C (single isomer, unassigned) [Compound 7]",
    "IC50": "> 3 µM"
  },
  {
    "COMPOUND": "COc1cc(OC2CCN(C)CC2(F)F)c2c(Nc3cc(C)c(Oc4ccn5ncnc5c4)cc3F)ncnc2c1 (single isomer, unassigned) [Compound 14]",
    "IC50": "1.39 µM"
  },
  {
    "COMPOUND": "Cc1cc(Nc2ncnc3ccc(NC4=NC(C)(C)CO4)cc23)ccc1Oc1ccn2ncnc2c1 [ONT380, reference compound]",
    "IC50": "> 3 µM"
  },
  {
    "COMPOUND": "Cc1cc(Nc2ncnc3cccc(OC4CC(C)N(C)CC4(F)F)c23)ccc1Oc1ccn2ncnc2c1 (single isomer, unassigned) [Compound 19]",
    "IC50": "> 10 µM"
  }
]

Consider the record given below.
Reported IC50 for [2H]C([2H])([2H])N1CC[C@H](Oc2cccc3ncnc(Nc4ccc(Oc5ccn6ncnc6c5)c(C)c4)c23)C[C@@H]1C(F)(F)F (racemic) [Compound 25] was > 10 µM

----------
Assay: Blood brain barrier penetration assay in rats (short oral absorption model)
Assay type: in vivo
Settings: male, Han Wistar, rat, brain, po, male Han Wistar rats, oral; AUC(brain)/AUC(blood or plasma) x fu ratio; read-out: Kp,uu brain
Protocol: In vitro blood, plasma and brain binding assay was carried out with equilibrium dialysis device. […] After centrifuging at 4000 rpm for 20 min, supernatant was diluted with 0.1% formic acid aqueous solution and analyzed for LC/MS/MS (API 4000, Applied Biosystems, Foster City). […] Standards were prepared by spiking blank plasma, blood, brain homogenate and artificial CSF. […] For brain and CSF samples, one standard curve was analyzed along with test samples. […]
OUTCOME MEASURE: Kp uu

Worked set:
[
  {
    "COMPOUND": "Cc1cc(Nc2ncnc3cccc(OC4CC(C)N(C)CC4(F)F)c23)ccc1Oc1ccn2ncnc2c1 (single isomer, unassigned)",
    "Kp uu": 0.1
  },
  {
    "COMPOUND": "[2H]C([2H])([2H])N1CCC([2H])(Oc2cc(OC)cc3ncnc(Nc4ccc(Oc5ccn6ncnc6c5)c(C)c4)c23)C(F)(F)C1 (single isomer, unassigned)",
    "Kp uu": 0.11
  },
  {
    "COMPOUND": "[2H]C([2H])([2H])N1CC[C@H](Oc2cccc3ncnc(Nc4ccc(Oc5ccn6ncnc6c5)c(C)c4)c23)C[C@@H]1C(F)(F)F (racemic)",
    "Kp uu": 0.11
  },
  {
    "COMPOUND": "Cc1cc(Nc2ncnc3cccc(OC4CCN(C)CC4(F)F)c23)ccc1Oc1ccn2ncnc2c1 (single isomer, unassigned)",
    "Kp uu": 0.23
  },
  {
    "COMPOUND": "[2H]C([2H])([2H])N1CCC(Oc2cccc3ncnc(Nc4ccc(Oc5ccn6ncnc6c5)c(C)c4)c23)C(F)(F)C1 (single isomer, unassigned)",
    "Kp uu": 0.23
  }
]

Consider the record given below.
Reported Kp uu for `COc1cc(O[C@H]2CCNCC2(F)F)c2c(Nc3ccc(Oc4ccn5ncnc5c4)c(C)c3)ncnc2c1` was 0.03

Origin of measurements: patent US10822334B2
